Experiment: Acute toxicity test
Conditions: mouse, in vivo, ip; mice
Protocol: An acute toxicity test was carried out with mice. As a result, the LD50 value of the 5057A and 5057B substances is 50 mg/kg i.p. and 50 mg/kg or more p.o. [drawing 14] [drawing 15]
Entries and their LD50
Use mg/kg as the unit, but write only the number.

In [3]: df
Out[3]:
                                   compound  parameter_measured  result_value
0  CCC(C(=O)C(C)C(O)C(C)C1OC(O)(C(C)C(=O)O)C(C)CC1C)C1OC(C)(C2(O)OC(CC)(C(O)CC)CC2C)CC1C (centres unmarked) [5057B]                LD50            50

Kindly review the next compound as well.
Could you share which LD50 value was measured for CCC(C(=O)C(C)C(O)C(C)C1OC(O)(C(C)C(=O)O)C(C)CC1C)C1OC(C)(C2(O)OC(CC)(C(C)O)CC2C)CC1C (centres unmarked) [5057A] ?
50
